target_system: UniProt P9WHJ3
run_description: Fluorescence Cell-Free Homogeneous Dose Retest to Identify Inhibitors of RecA-Intein Splicing Activity. [Related pubchem assays (depositor defined):AID2097, AID2223, AID489010, AID492950]
Format: functional
Activity calls are given as the source filed them.
Lab note: assign the record to one of active, inactive

Called result for `CCCn1c(CC)nc([N+](=O)[O-])c1S(=O)(=O)c1ccccc1` inactive

Called result for `Cn1cnc([N+](=O)[O-])c1S(=O)(=O)c1ccc(Cl)cc1` active

Called result for `Cc1ccc(N/C([S-])=C(/C(=O)c2ccc(F)cc2)[n+]2ccccc2)cc1` active

Called result for `CNCc1ccccc1Sc1ccc(O)c(O)c1` active

Called result for CC1=NN(c2ccc(C)cc2C)C(=O)C1C(c1cccc(O)c1)C1C(=O)N(c2ccc(C)cc2C)N=C1C (configuration not stated) active

Called result for `Cc1noc2ncnc(Sc3ccccc3Cl)c12` active

Called result for `CCC(=O)OCCNc1cc(Sc2nc3ccccc3s2)c2nonc2c1[N+](=O)[O-]` active

Called result for CN1c2ccccc2C(C)(C)C12C=Nc1c(ccc3ccccc13)O2 (configuration not stated) active

Called result for `Cc1ccc(NC2=C(N3CCOCC3)C(=O)c3ccccc3C2=O)cc1` active

Called result for `O=C(Nc1ccccc1)Nc1ccc(O)c2ccccc12` active

Called result for `Cc1cc(C)c(S(=O)(=O)Nc2cc(SCC(=O)O)c(O)c3ccccc23)cc1C` active

Called result for CC1(C)CC(C(CCN(Cc2ccccc2)C(=O)c2ccco2)c2ccc(F)cc2)CCO1 (configuration not stated) active

Called result for COc1ccc(C(CCN(Cc2ccc(OC)c(OC)c2)C(=O)CCl)c2ccccc2)cc1 (configuration not stated) active

Called result for `Cc1cc(F)ccc1S(=O)(=O)N(C(=O)c1ccncc1)c1ccc(OC(=O)c2ccncc2)cc1` active

Called result for COc1cc(NCCCC(C)N)c2ncccc2c1 (configuration not stated) active

Called result for `CCOC(=O)C/C(C)=N/NC(=O)COc1ccccc1C` active

----------
target_system: Nonstructural protein 1 (Influenza A virus, UniProt Q194T2)
Sequence (Q194T2 whole entry): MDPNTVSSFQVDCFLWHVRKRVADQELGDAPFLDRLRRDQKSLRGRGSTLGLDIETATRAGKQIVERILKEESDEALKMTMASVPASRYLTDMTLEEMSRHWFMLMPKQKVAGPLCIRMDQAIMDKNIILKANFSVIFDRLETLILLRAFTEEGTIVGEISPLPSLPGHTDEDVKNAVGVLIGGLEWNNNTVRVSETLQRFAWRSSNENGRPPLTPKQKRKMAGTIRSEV
Type: functional, Influenza A virus (A/California/07/2009(H1N1))
Calls of active or inactive are those of the source.
measured_metric: IC50

For the compound `C[n+]1c(-c2ccccc2)cc2c(=Cc3ccc([N+](=O)[O-])cc3)c3ccccc3n21` , report IC50. 9.36 µM (active)

For the compound `Cc1ccc(NC2=C(N3CCOCC3)C(=O)c3ccccc3C2=O)cc1` , report IC50. 7.74 µM (active)

For the compound `C/C(=N\NC(=O)c1ccccc1Cl)c1ccccn1` , report IC50. 11.1 µM (active)

For the compound `c1ccc(-c2nc(N3CCCCCC3)c3ccccc3n2)nc1` , report IC50. 23 µM (active)

For the compound `COc1ccc2c(c1)-c1c(ssc1=S)C(C)(C)N2` , report IC50. 22.7 µM (active)

For the compound `CCOC(=O)/C(C#N)=C/C=C1\C=Cc2ccccc2N1CC` , report IC50. > 100 µM (active)

For the compound `O=C1C(c2ccccc2)=[N+]([O-])c2ccccc21` , report IC50. 45.5 µM (active)

----------
target_system: Short transient receptor potential channel 4 (Mus musculus, UniProt Q9QUQ5)
Sequence (Q9QUQ5 whole entry): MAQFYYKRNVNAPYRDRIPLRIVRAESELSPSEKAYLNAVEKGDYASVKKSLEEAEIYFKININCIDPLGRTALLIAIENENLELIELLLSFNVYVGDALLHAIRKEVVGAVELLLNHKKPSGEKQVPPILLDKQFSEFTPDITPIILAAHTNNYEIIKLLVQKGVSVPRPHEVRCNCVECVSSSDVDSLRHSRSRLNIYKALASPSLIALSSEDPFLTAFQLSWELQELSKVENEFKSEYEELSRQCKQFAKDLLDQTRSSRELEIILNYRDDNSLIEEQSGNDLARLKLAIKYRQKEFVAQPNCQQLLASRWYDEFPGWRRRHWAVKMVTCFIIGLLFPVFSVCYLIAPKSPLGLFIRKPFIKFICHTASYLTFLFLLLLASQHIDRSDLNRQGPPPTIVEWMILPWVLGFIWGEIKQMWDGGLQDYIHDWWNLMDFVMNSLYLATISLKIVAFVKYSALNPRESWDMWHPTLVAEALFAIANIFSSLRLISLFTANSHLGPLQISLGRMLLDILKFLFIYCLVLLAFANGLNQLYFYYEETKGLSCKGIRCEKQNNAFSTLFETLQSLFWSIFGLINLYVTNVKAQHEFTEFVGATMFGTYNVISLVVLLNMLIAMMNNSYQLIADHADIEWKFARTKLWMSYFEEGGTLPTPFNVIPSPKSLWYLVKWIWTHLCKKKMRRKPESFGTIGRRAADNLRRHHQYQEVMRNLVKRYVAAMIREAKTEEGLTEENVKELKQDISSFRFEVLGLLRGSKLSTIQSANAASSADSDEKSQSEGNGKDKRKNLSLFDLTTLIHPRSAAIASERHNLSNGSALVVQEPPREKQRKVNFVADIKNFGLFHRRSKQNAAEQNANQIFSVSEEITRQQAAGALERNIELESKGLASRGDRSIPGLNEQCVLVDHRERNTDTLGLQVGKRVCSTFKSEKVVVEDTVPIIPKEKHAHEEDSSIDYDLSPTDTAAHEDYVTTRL
run_description: calcium entry via TRPC4 opening agents – cell-based, HEK293 TRPC4/mu-opioid, Fluo-4 calcium, dose response (AID 434937)
Type: functional
Active and inactive are the calls of the source.
measured_metric: EC50

For the compound `COc1ccc(CSCCN)cc1Cl` , report EC50. 5.96 µM (active)

For the compound `Cc1ccc(Cl)cc1N1CCN(CCN)CC1` , report EC50. 0.211 µM (active)

For the compound COc1ccc(C2NCCc3[nH]cnc32)cc1 (stereo not given) , report EC50. 3.35 µM (active)

For the compound `CCCCN(CC)CCCNC(=O)Cn1nc(Cc2cccnc2)c2ccccc2c1=O` , report EC50. 1.88 µM (active)

For the compound `COc1ccccc1CC(=O)N1CCN(CCc2ccccc2)CC1` , report EC50. 4.22 µM (active)
